Cited source: PubChem BioAssay (NCI)

Tested on: CCRF-CEM leukemia
Assay: NCI-60 one-dose screen, 48 h (100 = growth as untreated, 0 = no growth, -100 = all killed)
Settings: 10 µM unless noted
Procedure: Growth inhibition of the CCRF-CEM human tumor cell line is measured as a screen for anti-cancer activity. Cells are grown in 96 well plates and exposed to the test compound for 48 hours. Compounds are tested at a single concentration, which is 10^-5 M for most compounds. The reported endpoint is percent growth (GI% or GIPRCNT), where numbers from 0 - 100% represent growth inhibition, and numbers from -100% - 0 represent cell death. For example, a value of 40 represents 60% growth inhibition. […]
About 83,000 compounds went through this panel and 20% of them were active in at least one assay; those are over-represented in the sample as a whole.
Assignment: determine reported growth for the given compounds.
Output spec: scalar in %, unitless text.

Prompt line: Quickly give me recorded growth for COc1ccc(/C=C\c2cc(OC)c(OC)c(OC)c2)cc1OC(=O)c1cccc(Cn2cc(CCOC(=O)c3cccc(Cn4nnc5c4C(=O)c4ccccc4C5=O)c3)nn2)c1
Response line: 8.91

Prompt line: Quickly give me recorded growth for O=C1Nc2ccc(Cl)cc2C12Nc1cc(Cl)ccc1S2 (stereo not given)
Response line: 97.3

Prompt line: Quickly give me recorded growth for CCN(CC)c1ccc(/C=C2\Oc3ccc(O)c(I)c3C2=O)cc1
Response line: 13.3

Prompt line: Quickly give me recorded growth for COc1ccc(-c2nc3sccn3c2/C=C/C(=O)c2cc(F)cc(F)c2)cc1
Response line: 19.4

Prompt line: Quickly give me recorded growth for CCN1CCN(CC(=O)N2c3cccc4cccc(c34)N(C(=O)CN3CCN(CC)CC3)C2c2cn(-c3ccccc3)nc2-c2cccc([N+](=O)[O-])c2)CC1
Response line: -33.6

Prompt line: Quickly give me recorded growth for COP(=O)(OC)/C(=N\NS(=O)(=O)c1ccc(C)cc1)c1ccccc1
Response line: 124

Prompt line: Quickly give me recorded growth for O=C1c2c(c3c4ccccc4n(CCCCCCBr)c3c3[nH]c4ccccc4c23)C(=O)N1O
Response line: 3.53

Prompt line: Quickly give me recorded growth for COc1ccc2c(c1)[nH]c(=O)c1c3cc(C)c(C)cc3cn21
Response line: -68.1

Prompt line: Quickly give me recorded growth for Cc1ccc(C(=O)C2=Cc3cc4ccccc4n3Cc3cnnn32)cc1
Response line: 103

Prompt line: Quickly give me recorded growth for NC(=S)N/N=C1\CCCC(C(F)(F)F)C1 (stereo not given)
Response line: 45.5

Prompt line: Quickly give me recorded growth for CCN(CC)CCOc1ccc(Cl)c(C)c1
Response line: 98.4

Prompt line: Quickly give me recorded growth for O=[N+]([O-])c1cccc(-c2nc3sccn3c2-c2ccnc(NCCCNS(=O)(=O)c3ccc(Cl)cc3)n2)c1
Response line: 16.7

Prompt line: Quickly give me recorded growth for CC(C)(C)n1cc(-c2ccnc(NCCCNS(=O)(=O)c3ccc(Br)cc3)c2)c(-c2cccc(O)c2)n1
Response line: 25.5

Prompt line: Quickly give me recorded growth for O=C(/C=C/c1c[nH]c2ccccc12)c1ccc(O)c(CN2CCN(c3ccc(F)cc3)CC2)c1
Response line: 93.2

Prompt line: Quickly give me recorded growth for Fc1ccc(Nc2nc(NCCNc3ccnc4cc(Cl)ccc34)nc(N3CCOCC3)n2)cc1
Response line: 49.1

Prompt line: Quickly give me recorded growth for COc1ccc(/C(C#N)=C/c2cc(OC)c(OC)c(OC)c2)cc1
Response line: 26.8

Prompt line: Quickly give me recorded growth for O=[N+]([O-])c1cccc(-c2nc3sccn3c2-c2ccnc(NCCCNS(=O)(=O)c3ccc(C(F)(F)F)cc3)n2)c1
Response line: 14.5

Prompt line: Quickly give me recorded growth for C=C(C)[C@@H]1C[C@H](O)Cc2cc(F)ccc2N1
Response line: -62.7

Prompt line: Quickly give me recorded growth for CCC(C)/C(=C\C#N)NCCCN/C(=C/C#N)C(C)CC (stereo not given)
Response line: 97.4

Prompt line: Quickly give me recorded growth for CCCCCc1cc[n+](CC(=O)c2ccc([N+](=O)[O-])cc2)cc1
Response line: 89.2

----------
Tested on: TK-10 renal
Test: NCI-60 one-dose screen, 48 h
Conditions: 10 µM unless noted
This is part of a sample that, as a whole, favours compounds with a hit. Of some 83,000 tested, about 20% had one in any assay. Active and inactive are the calls of the source. How the source made its calls: active means growth percent below 10; inactive means the rest.
Thanks in advance; please answer with one of these: YES (active), NO (inactive)

Prompt line: Recorded call for COc1ccc(NC(=O)c2c(Nc3ccc(OC)cc3OC)n[nH]c2N)c(OC)c1 ?
Response line: NO

Prompt line: Recorded call for O=C(c1ccccc1)C1OC1c1ccc([N+](=O)[O-])cc1 (stereo not given) ?
Response line: NO

Prompt line: Recorded call for O=C(NS(=O)(=O)c1ccccc1)n1cc(-c2ccncc2)c(-c2ccc(Cl)c(O)c2)n1 ?
Response line: NO

Prompt line: Recorded call for O=C(Oc1ccccc1[N+](=O)[O-])C1CCCN1C(=O)OCc1ccccc1 (stereo not given) ?
Response line: NO

Prompt line: Recorded call for CCOC(=O)C1C(=O)C=C(c2ccc(OC)cc2)CC1c1sc(N(C)Cc2ccccc2)nc1Cl (stereo not given) ?
Response line: NO

Prompt line: Recorded call for O=[N+]([O-])c1ccc(/C=C/C2(CCl)OCCO2)cc1 ?
Response line: NO

Prompt line: Recorded call for COc1ccc(-c2cc3c(OC)c(OC)c(OC)cc3oc2=O)cc1 ?
Response line: NO

Prompt line: Recorded call for COc1ccc(N=Cc2c(O)ccc3c2oc2cc(Cl)c(O)c(Cl)c23)cc1 ?
Response line: NO

Prompt line: Recorded call for O=C1C2(c3ccccc3)C(c3ccccc3)=C(c3ccccc3)C1(c1ccccc1)C1CC=CC12 (stereo not given) ?
Response line: NO

Prompt line: Recorded call for C/C=C/C1=CN2C(=O)c3cc(OC4OC(C)C(NC)C(C)(O)C4O)c(C)cc3N=C[C@@H]2C1 (stereo not given in full) ?
Response line: NO

Prompt line: Recorded call for Nc1nc(-c2ccccc2)c(CCCOc2ccc(NC(=O)CBr)cc2)c(=O)[nH]1 ?
Response line: NO

Prompt line: Recorded call for N#Cc1ccc(N2Cc3ccccc3OC3=C2C(=O)c2c(O)ccc(O)c2C3=O)cc1 ?
Response line: YES

Prompt line: Recorded call for Cc1cc(N/N=C/c2nc(-c3ccc(Br)cc3)oc2C)c2cc(Cl)ccc2n1 ?
Response line: NO

Prompt line: Recorded call for C=C1CCC2C3(C)COC(C)(C)OC3CCC2(C)C1C/C=C1/C(=O)OCC1Oc1ccccc1OC (stereo not given) ?
Response line: NO

Prompt line: Recorded call for O=S(=O)(NCCCNc1nccc(-n2ccc3cccnc32)n1)c1ccc(Br)cc1 ?
Response line: NO

Prompt line: Recorded call for c1cc(C2=N[C@@H]3c4ccccc4C[C@@H]3O2)nc(C2=N[C@@H]3c4ccccc4C[C@@H]3O2)c1 ?
Response line: NO

Prompt line: Recorded call for COc1ccc(-c2nc(/C=N/Nc3cc(C)nc4ccc(Cl)cc34)c(C)o2)cc1 ?
Response line: YES

Prompt line: Recorded call for Cc1csc(NC(c2ccccc2)c2c(C)nc3ccccn23)n1 (stereo not given) ?
Response line: NO

Prompt line: Recorded call for O=S(=O)(c1ccc(OCCO)cc1)c1ccc(OCCO)cc1 ?
Response line: NO

Prompt line: Recorded call for COc1cc(C2NN=C3c4ccccc4CCC32)cc(OC)c1OC (stereo not given) ?
Response line: NO

Prompt line: Recorded call for CCC(C)/C(=C\C#N)NCCCN/C(=C/C#N)C(C)CC (stereo not given) ?
Response line: NO

Prompt line: Recorded call for COC1=C(OC)C(=O)C(CCCCCCCCCC[P+](c2ccccc2)(c2ccccc2)c2ccccc2)=C(C)C1=O ?
Response line: YES

Prompt line: Recorded call for O=[N+]([O-])c1ccc(-c2cn(-c3ccccc3)c(-c3ccccc3)n2)cc1 ?
Response line: NO

Prompt line: Recorded call for Clc1cccc(-c2cc(-c3ccc4c(c3)OCCO4)[nH]n2)c1 ?
Response line: NO

Prompt line: Recorded call for Cc1ccc(-c2cc3nc(-c4ccccc4)nc(C(Cl)Cl)n3n2)cc1 ?
Response line: YES

Prompt line: Recorded call for COc1ccc(S(=O)(=O)NCCCNc2nccc(-c3c(-c4cccc([N+](=O)[O-])c4)nc4sccn34)n2)cc1 ?
Response line: NO

Prompt line: Recorded call for COc1ccc(/C=C2\N=C(c3ccccc3)N(C(=O)c3ccccc3O)NC2=O)cc1 ?
Response line: NO

Prompt line: Recorded call for O=C(c1c[nH]c(=O)c(-c2ccccc2)c1)c1ccccc1O ?
Response line: NO

Prompt line: Recorded call for COc1ccc2c(c1)cn1c3ccc(OC)cc3[nH]c(=O)c21 ?
Response line: YES

Prompt line: Recorded call for NC(N)=N/N=C/c1ccc(-c2ccc(-c3cc(Cl)cc(Cl)c3)s2)cc1 ?
Response line: YES

Prompt line: Recorded call for O=[N+]([O-])c1cc(Cl)c2[nH]c3c(Cl)cc([N+](=O)[O-])cc3c2c1 ?
Response line: YES

Prompt line: Recorded call for CN(C)CCN1C(=O)c2ccc3c4c(ccc(c24)C1=O)C(=O)N(CCN=C=S)C3=O ?
Response line: YES

Prompt line: Recorded call for COc1cc(C(=O)/C=C/c2ccc3nc(-c4cc(F)cc(F)c4)sc3c2)cc(OC)c1OC ?
Response line: NO

Prompt line: Recorded call for O=C1/C(=C/c2ccc([N+](=O)[O-])cc2)CN(C(=O)CCN2CCC(=NO)CC2)C/C1=C\c1ccc([N+](=O)[O-])cc1 ?
Response line: YES

Prompt line: Recorded call for C=C1CCC2C(C)(CO)C(O)CCC2(C)C1CC(NCc1ccccc1)C1=CCOC1=O (stereo not given) ?
Response line: NO

Prompt line: Recorded call for O=S(=O)(NCCNc1nccc(-c2c(-c3cccc(O)c3)nc3sccn23)n1)c1ccc(F)cc1 ?
Response line: NO

Prompt line: Recorded call for O=C1/C(=C/c2ccccc2)Oc2ccc(O)c(I)c21 ?
Response line: NO

Prompt line: Recorded call for Cc1ccc(S(=O)(=O)n2cc(C(=O)C(=O)Nc3ccncc3)c3ccccc32)cc1 ?
Response line: NO

Prompt line: Recorded call for CCO/C=N/C1=C(C#N)C(c2ccc(Cl)cc2)c2c(c3ccccc3n(C)c2=O)O1 (stereo not given) ?
Response line: NO

Prompt line: Recorded call for CCCCN(CCCC)C(=O)CC ?
Response line: NO
